Target: T1, GDF15 mutant Q247R (wrist region), albumin fusion (human, UniProt Q99988 195-308)
T1 construct: not shown: albumin fusion partner
T1 chain: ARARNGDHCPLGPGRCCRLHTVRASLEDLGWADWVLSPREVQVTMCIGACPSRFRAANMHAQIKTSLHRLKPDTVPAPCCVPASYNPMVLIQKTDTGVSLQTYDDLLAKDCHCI
Experiment: direct ELISA on coated albumin-fusion GDF15 variant
OBSERVABLE: binding result

ABGDF15-A (antibody, human IgG1, kappa, V domains shown, captured through anti-human Fc in the Biacore assay) VH: EVQLVQSGAEVKKPGESLKISCKGSGYSFTDYWISWVRQMPGKGLEWMGIIDPSGSYTIYSPSFQGQVTISADKSISTAYLQWSSLKASDTAMYYCARVSYYGGYFDIWGQGTLVTVSS VL: DIQMTQSPSSLSASVGDRVTITCRASQSISNNLNWYQQKPGKAPKLLIYAASNLQSGVPSRFSGSGSGTDFTLTISSLQPEDFATYYCFQLDHSPFTFGQGTKVEIKR: binds
ABGDF15-B (antibody, human IgG1, lambda, V domains shown, captured through anti-human Fc in the Biacore assay) VH: QVQLVQSGAEVKKPGSSVKVSCKASGGTFRSYAVSWVRQAPGQGLEWMGGIIPIFGTANYAQKFQGRVTITADESTSTAYMELSSLRSEDTAVYYCARGPIIMGYQFGLFDHWGQGTLVTVSS VL: SYELTQPLSVSVALGQTARITCSGDNIGSHIVSWYQQKPGQAPVLVIYDKSNRPSGIPERFSGSNSGNTATLTISRAQAGDEADYYCQTWDSIGSVVFGGGTKLTVLG: binds
